system: DU-145 prostate; experiment: NCI tumour cell line growth inhibition, 48 h
# Lookup of reported TGI keyed by entry

TGI reading for O=C(c1ccco1)N(C(=S)OCCOc1ccccc1)c1ccccc1 : 51.6 µM

TGI reading for COc1ccc2[nH]c3c4[nH]c5ccc(OC)cc5c4c4c(c3c2c1)C(=O)NC4=O : > 25 µM

TGI reading for CCN(CC)CCSc1c2cc(OC)ccc2nc2ccc(OC)cc12 : 3.56 µM

TGI reading for COc1ccc(-c2[nH]c3ccc(OC)cc3c2/C=C(\C#N)S(=O)(=O)c2ccccc2)cc1 : > 31.4 µM

TGI reading for CCOC(=O)Cn1c(=O)ccn(COCCO)c1=O : > 100 µM

TGI reading for NNC(=O)c1c(SCc2ccccc2)nc2c3ccccc3ccn12 : > 100 µM

###

test system: MDA-MB-435
Pick one: TRUE for active, FALSE for inactive

compound=COc1ccc(C[N+](C)(C)N)cc1OC system_name=MDA-MB-435 category=FALSE
compound=COc1ccccc1CNCCCN1C(=O)c2ccc3c4c(ccc(c24)C1=O)C(=O)N(CCCNCCNCCCN)C3=O system_name=MDA-MB-435 category=FALSE
compound=Cc1cc(C(=O)Nc2ccc3cc(CN4CCOCC4)ccc3n2)c(C)n1-c1ccccc1 system_name=MDA-MB-435 category=FALSE
compound=NC(=O)c1cc(Cl)ccc1NC(=O)/C=C/c1ccccc1 system_name=MDA-MB-435 category=FALSE
compound=COc1ccc2[nH]c3c4[nH]c5ccc(OC)cc5c4c4c(c3c2c1)C(=O)NC4=O system_name=MDA-MB-435 category=FALSE

Query :: How did this test come out for O=C1c2cccnc2-c2nc(-c3ccc(Cl)cc3)cc3c2c1nc1ccccc13 ?
Result :: FALSE

Query :: How did this test come out for c1ccc(Sc2ccc(Cc3nc4cc5ccccc5cc4[nH]3)cc2)cc1 ?
Result :: FALSE

Query :: How did this test come out for Cc1ccc(N=C/C=C(\Nc2ccc(C)cc2)c2ccc(Cl)cc2)cc1 ?
Result :: FALSE

###

test system: SF-295 CNS; test: NCI tumour cell line growth inhibition, 48 h
Measurement name: TGI (µM)
Field: numeric (µM). Do not append units.

Would you please look over these solved cases?
cpd_smiles=C[C@@H]1Nc2cc(NC(=O)OCCF)nc(N)c2N=C1c1ccccc1 unit_tag=µM reported_result=20.1
cpd_smiles=COc1ccc(/C=C/c2c(C(=O)/C=C/c3ccccc3)c(C)nc3ccccc23)cc1 unit_tag=µM reported_result=7.46

TGI reading for Cc1ccc(N=C/C=C(\Nc2ccc(C)cc2)c2ccc(Cl)cc2)cc1 : 21.9

###

tested on: CAKI-1 renal; assay: NCI tumour cell line growth inhibition, 48 h; in the data active means GI50 below about 0.43 µM; inactive means the rest
Pick one: t (active), f (inactive)

compound=NS(=O)(=O)c1ccc(-c2ccc3c(NC(=O)C4CC4)n[nH]c3c2)cc1 category=f
compound=Nc1nc(Nc2cccnc2)sc1C(=O)c1ccccc1F category=f
compound=COc1cc2ncnc(-n3ncc4cc(NC(=O)Nc5ccccc5)ccc43)c2cc1OC category=f
compound=O=S(=O)(c1ccc(NC(=S)NC23CC4CC(CC(C4)C2)C3)cc1)N1CCCCC1 category=f
compound=Cc1cc(C(=O)Nc2ccc3cc(CN4CCOCC4)ccc3n2)c(C)n1-c1ccccc1 category=f

Query :: How did this test come out for c1ccc(Sc2ccc(Cc3nc4cc5ccccc5cc4[nH]3)cc2)cc1 ?
Result :: f

Query :: How did this test come out for CC12OC(C(=O)C13CC3)C1C(=O)c3ccc4c(ccc5ccccc54)c3C(=O)C12 (stereo not drawn) ?
Result :: f

###

test system: HT29 colon; assay: NCI tumour cell line growth inhibition, 48 h
Measurement name: TGI

cpd_smiles=O=C1c2ccccc2C(=O)N1CCCCNOCCCN1C(=O)c2ccccc2C1=O measurement_name=TGI reported_result="> 100 µM"

TGI reading for CC(=O)[C@@H](C)C(=O)N1C(=O)OC[C@@]12[C@@H]1CC[C@@H](C1)C2(C)C : > 100 µM

TGI reading for CN(Cc1ccccc1)C(=O)c1ccccc1C(=O)O : > 100 µM

TGI reading for CC/C=C\C[C@H](O)C/C=C1/C(=O)C=C[C@@H]1C/C=C\CCCC(=O)OC : 3.8 µM

TGI reading for CC1=[N+]([O-])c2ccccc2C(=O)C1=O : > 100 µM

###

test system: PC-3 prostate; experiment: NCI tumour cell line growth inhibition, 48 h
Measurement name: TGI

molecule=COc1ccc(C(=O)c2cc(OC)c(OC)c(OC)c2)cc1/C=C/C(=O)c1ccc(F)cc1 reported_result="13.7 µM"
molecule=COc1ccc(C(=O)c2cc(C)c(OC)c(C)c2)c(OC)c1O reported_result="> 100 µM"
molecule="CCC(C)NC1=NCC(C)S1 (stereo unspecified)" reported_result="> 100 µM"
molecule=Cc1ccc(S(=O)(=O)N/N=C2/CCCOC2)cc1 reported_result="> 100 µM"
molecule="CCCCCCCCCCCCCCCC(=O)OCC(C[As](=O)(O)O)OC(=O)CCCCCCCCCCCCCCC (stereo unspecified)" reported_result="> 100 µM"

Next molecule, please.
For the molecule CCCc1c(O)nc(Nc2nc3ccccc3[nH]2)[nH]c1=O , the measured TGI on PC-3 prostate was > 100 µM

###

test system: NCI-H522 lung; assay: NCI tumour cell line growth inhibition, 48 h
# Lookup of reported TGI keyed by entry

Would you please look over these solved cases?
cpd_smiles=COc1cc(/C=C/c2ccc(OC)c(O)c2)cc(OC)c1 reported_result="4.49 µM"
cpd_smiles=O=C1c2ccccc2C(=O)N1CCCCNOCCCN1C(=O)c2ccccc2C1=O reported_result="> 100 µM"
cpd_smiles=CSc1cc(Cl)c(C)cc1S(=O)(=O)NC(=O)NNc1cccc(C(F)(F)F)n1 reported_result="> 100 µM"
cpd_smiles=CCN1CCN(c2nc3ccccc3c3c2CCOc2ccccc2-3)CC1 reported_result="> 62.3 µM"

TGI reading for Cc1cc(N(CCC#N)CCC#N)ccc1/C=C(\NC(=O)/C=C/c1ccccc1)C(N)=O : > 100 µM

###

test system: T-47D breast; assay: NCI tumour cell line growth inhibition, 48 h
Measurement name: TGI

molecule="COC(=O)c1cc2c(cc1CC(Cc1ccc3c(c1)CCCC3)C(=O)OC)CCCC2 (stereo unspecified)" reported_result="> 100 µM"
molecule=C/C(=N\Nc1ccc(Cl)cn1)c1ccc2ccccc2n1 reported_result="68.4 µM"
molecule="CCOC1=NC(O)c2cccn2-c2sccc21 (stereo unspecified)" reported_result="> 100 µM"

TGI reading for CCN1CCN(c2nc3ccccc3c3c2CCOc2ccccc2-3)CC1 : > 69.8 µM

TGI reading for CCO/C=N\C1=C(C#N)SC2=N/C(=C\c3ccc(OC)cc3)C(=O)N21 : > 100 µM

TGI reading for O=C1c2ccccc2C(=O)N1CCCCNOCCCN1C(=O)c2ccccc2C1=O : > 100 µM

###

test system: T-47D breast; test: NCI tumour cell line growth inhibition, 48 h
# Lookup of reported TGI keyed by entry

Would you please look over these solved cases?
compound=C=CCCCCC/C=C\[C@@H](O)C#CC#C/C=C/CO system_name="T-47D breast" reported_result="> 100 µM"
compound=CCOC(=O)c1cn2c(n1)sc1cc(Cl)ccc12 system_name="T-47D breast" reported_result="> 100 µM"
compound=CCOC(=O)c1c(N2CCOCC2)[nH]c(=O)c(C(c2c(Cl)cccc2Cl)c2c(O)c(C(=O)OCC)c(N3CCOCC3)[nH]c2=O)c1O system_name="T-47D breast" reported_result="13.2 µM"

Next compound, please.
TGI reading for NNC(=S)N/N=C(/C(=O)Nc1ccc(Cl)c(Cl)c1)C(C1OC(=O)c2ccccc21)[N+](=O)[O-] (centres undefined) : > 100 µM

###

test system: RPMI-8226 leukemia; assay: NCI tumour cell line growth inhibition, 48 h; in the data active means GI50 below about 0.43 µM; inactive means the rest
Pick one: 1 (yes) (active), 0 (no) (inactive)

cpd_smiles=O=C1/C(=C(/c2ccccc2)N2CCOCC2)Cc2ccccc21 system_name="RPMI-8226 leukemia" category="0 (no)"

Query :: How did this test come out for COc1cc2ncnc(-n3ncc4cc(NC(=O)Nc5ccccc5)ccc43)c2cc1OC ?
Result :: 0 (no)

Query :: How did this test come out for Cc1cc(C)c(NC(=O)c2sc3nc4c(cc3c2N)C(=O)CCC4)c(C)c1 ?
Result :: 0 (no)

Query :: How did this test come out for COc1ccc(C(=O)c2cc(C)c(OC)c(C)c2)c(OC)c1O ?
Result :: 1 (yes)

Query :: How did this test come out for COc1ccc(/C=C/c2c(C(=O)/C=C/c3ccccc3)c(C)nc3ccccc23)cc1 ?
Result :: 0 (no)

###

tested on: RPMI-8226 leukemia; assay: NCI tumour cell line growth inhibition, 48 h; in the data active = GI50 below about 0.43 µM; inactive = the rest
Pick one: T for active, F for inactive

Query :: How did this test come out for O=c1cc(NCC(O)CN2CCCC2)n(Cc2ccccc2)c(=O)n1Cc1ccccc1 (stereo not drawn) ?
Result :: F

Query :: How did this test come out for COc1cc2c3c(n(CCCN)c(=O)c2cc1OC)-c1ccc(C#N)cc1C3=O ?
Result :: F

Query :: How did this test come out for C=C(C)[C@@H]1CC[C@]2(CO)CC[C@]3(C)[C@H](CC[C@@H]4[C@@]5(C)C=C(C#N)C(=O)C(C)(C)[C@@H]5CC[C@]43C)[C@@H]12 ?
Result :: F

Query :: How did this test come out for Cc1ccc(NC(=O)c2cccc(C(C)(C)C#N)c2)cc1Nc1ccc2ncn(C)c(=O)c2c1 ?
Result :: F

Query :: How did this test come out for COCC[C@H]1CCC/C=C/[C@@H]2C[C@H](O)C[C@H]2[C@H](O)/C=C/C(=O)O1 ?
Result :: T

Query :: How did this test come out for NC(=O)c1cc(Cl)ccc1NC(=O)/C=C/c1ccccc1 ?
Result :: F

Query :: How did this test come out for C=C1C(=O)O[C@H]2[C@H]1CC/C(COC(=O)NCCCCNC(=O)OC/C1=C/CC[C@@]3(C)O[C@H]3[C@H]3OC(=O)C(=C)[C@@H]3CC1)=C\CC[C@@]1(C)O[C@@H]21 ?
Result :: F

Query :: How did this test come out for N#Cc1ccccc1CSc1ncnc2nc[nH]c12 ?
Result :: F
